Source of measurements: PubChem BioAssay AID2551

Target: Nuclear receptor ROR-gamma (Mus musculus) (UniProt P51450)
Sequence (P51450 whole entry, looked up): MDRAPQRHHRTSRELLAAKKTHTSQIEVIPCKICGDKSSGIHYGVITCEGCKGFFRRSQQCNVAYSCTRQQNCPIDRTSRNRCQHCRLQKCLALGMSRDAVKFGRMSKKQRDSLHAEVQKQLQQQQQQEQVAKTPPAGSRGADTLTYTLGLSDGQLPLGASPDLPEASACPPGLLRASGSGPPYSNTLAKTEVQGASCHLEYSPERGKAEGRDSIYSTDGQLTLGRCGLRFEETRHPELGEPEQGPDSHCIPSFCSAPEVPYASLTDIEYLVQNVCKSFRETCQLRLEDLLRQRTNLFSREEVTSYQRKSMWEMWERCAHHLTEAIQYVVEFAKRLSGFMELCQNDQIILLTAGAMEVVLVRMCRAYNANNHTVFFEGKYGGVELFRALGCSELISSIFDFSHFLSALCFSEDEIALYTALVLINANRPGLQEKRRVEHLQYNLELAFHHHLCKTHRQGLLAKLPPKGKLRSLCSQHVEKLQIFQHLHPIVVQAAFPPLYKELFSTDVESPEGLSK
Assay: qHTS for inhibitors of ROR gamma transcriptional activity; also: nearly all actives have a fitted effect of over 60% in size
Settings: Drosophila S2 Gal4-RORgamma UAS-luciferase reporter, 20 h; series mostly up to 53.6 µM
About 17,000 (5.5%) of roughly 310,000 compounds were called active. About 11% were inconclusive and are not listed. Calls follow the shape of the dose curve; as a rule, active = well fitted inhibition curve with a large enough effect; inconclusive = small, poorly fitted or top-dose-only effect, or effect the other way; inactive = no such curve, though single readings can be large or run the other way. The list comes from a sample in which actives are over-represented; it also holds close analogues and randomly drawn compounds.
Return exactly one item of true (1) for active, false (0) for inactive

Query string: Could you check what this test reported for `COc1ccc(S(=O)(=O)Nc2ccccc2C(=O)N2CCCC2)cc1C` ?
Result string: false (0)

Query string: Could you check what this test reported for `Cc1cccc(C)c1NC(=O)CSc1nnc(-c2ccccc2)n1Cc1ccc2c(c1)OCO2` ?
Result string: false (0)

Query string: Could you check what this test reported for c1ccc(-c2nnc3n2NC(c2ccc4c(c2)OCO4)S3)cc1 (stereo not drawn) ?
Result string: true (1)

Query string: Could you check what this test reported for `Cc1cccc(N2CCN(c3ccc(NC(=O)/C=C\C(=O)O)cc3)CC2)c1` ?
Result string: false (0)

Query string: Could you check what this test reported for `C=CCNC(=S)N1CCc2[nH]c3ccccc3c2C1` ?
Result string: false (0)

Query string: Could you check what this test reported for O=C(NCCc1ccc(Cl)cc1)C1CCCN1C(=O)NCc1ccccc1 (stereo not drawn) ?
Result string: false (0)

Query string: Could you check what this test reported for `COc1cccc(N(CC(=O)NCc2ccccc2)C(=O)CCC(=O)Nc2nccs2)c1` ?
Result string: false (0)

Query string: Could you check what this test reported for `COC(=O)CN1C(=O)[C@H]2[C@@H](/C=C/c3ccccc3)N3C(=O)CN(CC4CC4)C(=O)[C@@]3(Cc3ccccc3)[C@H]2C1=O` ?
Result string: false (0)

Query string: Could you check what this test reported for `CCCOc1ccc(N/C=C/C(=O)C(C)(C)C)cc1` ?
Result string: false (0)

Query string: Could you check what this test reported for `Cc1noc(C)c1C(=O)N1CCOCC1` ?
Result string: false (0)

Query string: Could you check what this test reported for `C=CCn1c(COc2ccccc2C)nnc1SCC(=O)O` ?
Result string: false (0)

Query string: Could you check what this test reported for `O=C(N/N=C/c1ccc(O)cc1)/C(=C/c1ccc([N+](=O)[O-])cc1)NC(=O)c1ccccc1` ?
Result string: false (0)

Query string: Could you check what this test reported for `Cc1oc2c(c1C(=O)N1CCOCC1)C(=O)c1ccccc1C2=O` ?
Result string: true (1)

Query string: Could you check what this test reported for `Cc1nc(-c2ccccc2)sc1-c1nnc(C2CC2)o1` ?
Result string: false (0)

Query string: Could you check what this test reported for `COc1ccc2nc(Nc3nc(-c4cc5ccccc5oc4=O)cs3)sc2c1` ?
Result string: true (1)

Query string: Could you check what this test reported for `C=CCn1c(-c2ccc3[nH]c(C)c(C)c3c2)n[nH]c1=S` ?
Result string: true (1)

Query string: Could you check what this test reported for `O=C(O)CCC(=O)NCc1ccc2[nH]c3c(c2c1)CCCC3` ?
Result string: false (0)

Query string: Could you check what this test reported for `CCCCOc1ccc(C(=O)NCc2ccncc2)cc1` ?
Result string: false (0)

Query string: Could you check what this test reported for `C=CCn1c(-c2ccccc2OCC)n[nH]c1=S` ?
Result string: true (1)

Query string: Could you check what this test reported for `Cc1ccccc1-c1ccc(C(=O)O)s1` ?
Result string: false (0)

Query string: Could you check what this test reported for `O=C(Cn1nnc(-c2ccccc2)n1)NCc1ccc2c(c1)OCO2` ?
Result string: false (0)

Query string: Could you check what this test reported for CCCOc1ccc(C(=O)C(CCC(CNCC)C(=O)c2ccc(OCCC)cc2)CNCC)cc1 (stereo not drawn) ?
Result string: true (1)

Query string: Could you check what this test reported for `Cc1cccc(NC(=S)NCc2ccc3[nH]c4c(c3c2)CCCC4)c1` ?
Result string: true (1)
